# Tested on: LNCaP
# test_summary: Antiproliferative activity against human LNCaP cells assessed as inhibition of cell proliferation incubated for 72 hrs by MTT assay
# Format: functional, cell-based
pIC50: −log10 of the molar value.
reported_property: pIC50

compound: CC(=O)OC[C@]12CC[C@H]3[C@@H](CC(=O)C4=CC=CC(=O)[C@@]43C)[C@]1(O)CC[C@@]2(O)[C@@](C)(O)C1CC(C)=C(C)C(=O)O1 (stereo partly drawn)
meas_value: < 5.30

compound: CC(=O)OC[C@]12CC[C@H]3[C@@H](CC=C4CCCC(=O)[C@@]43C)[C@@]1(O)CC[C@@]2(O)[C@@](C)(O)C1CC(C)=C(C)C(=O)O1 (stereo partly drawn)
meas_value: < 5.30

compound: CC(=O)OC[C@]12CC[C@H]3[C@@H](C[C@H]4O[C@]45CCCC(=O)[C@]35C)[C@]1(O)CC[C@@]2(O)[C@@](C)(O)C1CC(C)=C(C)C(=O)O1 (stereo partly drawn)
meas_value: < 5.30
